Listed below: Kd values for each entry.
Target Entity: T1, IFN-αC (human, UniProt P01566 24-189)
T1 construct: also called IFN-α10; alpha C
Test: ProteOn, one antigen concentration
Observed Property: Kd (nM)

>  <Binder>
IFWM3355 (antibody, V domains shown, VH IFWH624, VL IFWL1022; converted mAb; also called IFWB3090) VH: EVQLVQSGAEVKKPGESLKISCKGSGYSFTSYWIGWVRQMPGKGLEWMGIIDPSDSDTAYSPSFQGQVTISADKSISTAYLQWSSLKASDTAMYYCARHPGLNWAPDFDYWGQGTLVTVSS VL: DIQMTQSPSSLSASVGDRVTITCRASQSINEFLNWYQQKPGKAPKLLIYFASSLQSGVPSRFSGSGSGTDFTLTISSLQPEDFATYYCQQSYSTPLTFGQGTKVEIK

>  <Observed Property>
Kd

>  <Result Units>
nM

>  <Reported>
0.055

$$$$
>  <Binder>
IFWM3340 (antibody, V domains shown, VH IFWH624, VL IFWL983; converted mAb; also called IFWB3075) VH: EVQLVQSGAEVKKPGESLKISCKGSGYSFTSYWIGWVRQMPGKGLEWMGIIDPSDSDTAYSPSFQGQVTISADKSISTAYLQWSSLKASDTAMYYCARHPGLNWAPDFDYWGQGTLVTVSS VL: DIQMTQSPSSLSASVGDRVTITCRASQSIDGSLNWYQQKPGKAPKLLIYFASSLQSGVPSRFSGSGSGTDFTLTISSLQPEDFATYYCQQSYDFPLTFGQGTKVEIK

>  <Observed Property>
Kd

>  <Result Units>
nM

>  <Reported>
0.048

$$$$
>  <Binder>
IFWM3301 (antibody, V domains shown, VH IFWH591, VL IFWL983; converted mAb; also called IFWB3036) VH: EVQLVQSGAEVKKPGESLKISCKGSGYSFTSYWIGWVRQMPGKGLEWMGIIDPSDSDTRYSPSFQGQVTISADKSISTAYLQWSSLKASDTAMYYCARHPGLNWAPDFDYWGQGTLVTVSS VL: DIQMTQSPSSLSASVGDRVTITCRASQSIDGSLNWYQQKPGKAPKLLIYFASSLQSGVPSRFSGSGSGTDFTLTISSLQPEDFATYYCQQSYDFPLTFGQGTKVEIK

>  <Observed Property>
Kd

>  <Result Units>
nM

>  <Reported>
0.024

$$$$
